test: Absorption maximum of the dye; assay type: physicochemical; details: solvent PBS pH 7.4
# reported λabs; entries follow
property.label: λabs (nm)

{"smiles.entry": "CN(C)c1ccc2c(c1)C(C)(C)c1cc3c(cc1=C2NCCCCCC(=O)O)CCC[N+]=3Cc1ccc(S(=O)(=O)O)cc1S(=O)(=O)O", "property.label": "λabs", "unit.descriptor": "nm", "reported.result": 463}
{"smiles.entry": "Cc1cc(=O)[nH]c2cc(NCS(=O)(=O)O)ccc12", "property.label": "λabs", "unit.descriptor": "nm", "reported.result": 349}

* * *

# reported λabs; entries follow
assay: Absorption maximum of the dye; type: physicochemical; details: solvent water/acetonitrile 1:1
Marks after values point to notes of the source that are not given here.

{"smiles.entry": "O=C(O)c1ccccc1-c1c2cc/c(=N/CS(=O)(=O)O)c(S(=O)(=O)O)c-2oc2c(S(=O)(=O)O)c(NCS(=O)(=O)O)ccc12", "λabs": "533^c nm"}
{"smiles.entry": "O=C(O)c1ccccc1-c1c2cc(S(=O)(=O)O)/c(=N/c3ccc(S(=O)(=O)O)cc3)cc-2oc2cc(Nc3ccc(S(=O)(=O)O)cc3)c(S(=O)(=O)O)cc12", "λabs": "558^c nm"}
{"smiles.entry": "O=C(O)c1ccccc1-c1c2cc/c(=N/Cc3ccc(S(=O)(=O)O)cc3S(=O)(=O)O)cc-2oc2cc(NCc3ccc(S(=O)(=O)O)cc3S(=O)(=O)O)ccc12", "λabs": "536^c nm"}
{"smiles.entry": "O=C(O)C1CCN(C(=O)c2ccccc2-c2c3cc(S(=O)(=O)O)/c(=N/Cc4ccc(S(=O)(=O)O)cc4S(=O)(=O)O)cc-3oc3cc(NCc4ccc(S(=O)(=O)O)cc4S(=O)(=O)O)c(S(=O)(=O)O)cc23)CC1", "λabs": "529^c nm"}
{"smiles.entry": "CN(CCCC(=O)O)C(=O)c1ccccc1-c1c2ccc(=[N+](Cc3ccc(S(=O)(=O)O)cc3S(=O)(=O)O)Cc3ccc(S(=O)(=O)O)cc3S(=O)(=O)O)cc-2oc2cc(N(Cc3ccc(S(=O)(=O)O)cc3S(=O)(=O)O)Cc3ccc(S(=O)(=O)O)cc3S(=O)(=O)O)ccc12", "λabs": "550^c nm"}
{"smiles.entry": "CCN(Cc1ccc(S(=O)(=O)O)cc1S(=O)(=O)O)c1ccc2c(-c3ccccc3C(=O)O)c3cc/c(=[N+](\\CC)Cc4ccc(S(=O)(=O)O)cc4S(=O)(=O)O)cc-3oc2c1", "λabs": "550^c nm"}
{"smiles.entry": "CN(CCCC(=O)O)C(=O)c1ccccc1-c1c2cc/c(=N/Cc3ccc(S(=O)(=O)O)cc3S(=O)(=O)O)c(S(=O)(=O)O)c-2oc2c(S(=O)(=O)O)c(NCc3ccc(S(=O)(=O)O)cc3S(=O)(=O)O)ccc12.CS(=O)(=O)O", "λabs": "532^c nm"}

Data provenance: patent US11180657B2
